Catalogue of compounds with associated % effect (2)
Target: KCNJ5^G151R (Homo sapiens, UniProt P48544, G151R)
Construct: expressed in transfected cells
Assay: cell-based
Format: cell-based
Conditions: 10 μM; ATP level 72 h after induction; uninduced = 100%, induced = 0% effect; second of the two runs (primary screen / hit pick, confirmatory testing)
Write it as a number; the unit % goes unstated.

Completed entries (count: 3):
compound	number
COc1ccc(NC(=O)c2c(C)oc3ccc(O)c(CN4CCN(Cc5ccccc5)CC4)c23)cc1Cl	99.3
COc1ccc(NC(=O)c2c(C)oc3ccc(O)c(CN4CCCCCC4)c23)cc1Cl	51.3
C1CCC(N=C(NC23CC4CC(CC(C4)C2)C3)N2CCOCC2)CC1.Cl [YU224116, U-37883A-HCl]	65.8

KCNJ5^G151R (Homo sapiens, UniProt P48544, G151R) / % effect (2) / COc1ccc(NC(=O)c2c(C)oc3ccc(O)c(CN4CCCC(C)C4)c23)cc1 (stereo not drawn) : value?
44.0

KCNJ5^G151R (Homo sapiens, UniProt P48544, G151R) / % effect (2) / CC(=O)N(C)c1c(I)cc(I)c(OC(C)C(=O)O)c1I (stereo not drawn) : value?
47.9

KCNJ5^G151R (Homo sapiens, UniProt P48544, G151R) / % effect (2) / Cc1oc2ccc(O)c(CN3CCCCC3C)c2c1C(=O)Nc1ccccc1 (stereo not drawn) : value?
64.5

KCNJ5^G151R (Homo sapiens, UniProt P48544, G151R) / % effect (2) / COc1cc(-c2ccc(NC(=O)NC3CC3)c(OC)c2)ccc1NC(=O)NC1CC1 : value?
68.3

KCNJ5^G151R (Homo sapiens, UniProt P48544, G151R) / % effect (2) / Cc1oc2ccc(O)c(CN3CCC(C)CC3)c2c1C(=O)Nc1ccccc1 : value?
39.1

----------
Catalogue of compounds with associated L168R maximum inhibition
Biological target: KCNJ5^L168R (Homo sapiens, UniProt P48544, L168R)
Construct: expressed in transfected cells
Experiment: Cell viability assay (ATP, CellTiter-Glo): rescue of KCNJ5^L168R-induced lethality in inducible HEK293 cells
Format: cell-based
Details: 10-point dilution 20 to 0.0391 μM, N=3, four-parameter fit
Write it as a number; the unit % goes unstated.

compound	system-tested	L168R maximum inhibition (%)
CC[C@H]1OC(=O)[C@H](C)[C@@H](O[C@H]2C[C@@](C)(OC)[C@@H](O)[C@H](C)O2)[C@H](C)[C@@H](O[C@@H]2O[C@H](C)C[C@H](N(C)C)[C@H]2O)[C@](C)(O)C[C@@H](C)C(=O)[C@H](C)[C@@H](O)[C@H]1C [Erythromycin B, erythromycin B]	KCNJ5^L168R (Homo sapiens, UniProt P48544, L168R)	80.00
CC[C@H]1OC(=O)[C@H](C)[C@@H](O[C@H]2C[C@@](C)(OC)[C@@H](O)[C@H](C)O2)[C@H](C)[C@@H](O[C@@H]2O[C@H](C)C[C@H](N(C)C)[C@H]2O)[C@](C)(O)C[C@@H](C)C(=O)[C@H](C)[C@@H](O)[C@]1(C)O [Erythromycin, erythromycin]	KCNJ5^L168R (Homo sapiens, UniProt P48544, L168R)	25.00

Look at this compound and give its reported L168R maximum inhibition. CC[C@H]1OC(=O)[C@H](C)[C@@H](O[C@H]2C[C@@](C)(OC)[C@@H](O)[C@H](C)O2)[C@H](C)[C@@H](O[C@@H]2O[C@H](C)C[C@H](NC)[C@H]2O)[C@](C)(O)C[C@@H](C)/C(=N\OCOCCOC)[C@H](C)[C@@H](O)[C@]1(C)O [N-demethyl Roxithromycin, N-demethyl roxithromycin]
76.95

Look at this compound and give its reported L168R maximum inhibition. CC[C@H]1OC(=O)[C@H](C)[C@@H](O[C@H]2C[C@@](C)(OC)[C@@H](O)[C@H](C)O2)[C@H](C)[C@@H](O[C@@H]2O[C@H](C)C[C@H](N(C)C(C)C)[C@H]2O)[C@@]2(C)CC(C)=C(O2)[C@H](C)[C@@H](O)[C@]1(C)O [Idremcinal, idremcinal]
66.69

----------
Molecular target: KCNJ5^L168R (Homo sapiens, UniProt P48544, L168R)
Construct: expressed in transfected cells
Test: Cell viability assay (ATP, CellTiter-Glo): rescue of KCNJ5^L168R-induced lethality in inducible HEK293 cells
Format: cell-based
Conditions: tested at 1.1, 3.3 and 10 μM
reported-metric: dose response on KCNJ5^L168R

compound	reported-metric	result
CC[C@H]1OC(=O)[C@H](C)[C@@H](O[C@H]2C[C@@](C)(OC)[C@@H](O)[C@H](C)O2)[C@H](C)[C@@H](O[C@@H]2O[C@H](C)C[C@H](NC)[C@H]2O)[C@](C)(O)C[C@@H](C)/C(=N\OCOCCOC)[C@H](C)[C@@H](O)[C@]1(C)O [N-demethyl Roxithromycin, N-demethyl roxithromycin]	dose response on KCNJ5^L168R	showed a dose response
CC[C@H]1OC(=O)[C@H](C)[C@@H](O[C@H]2C[C@@](C)(OC)[C@@H](O)[C@H](C)O2)[C@H](C)[C@@H](O[C@@H]2O[C@H](C)C[C@H](N(C)C)[C@H]2O)[C@](C)(OC)C[C@@H](C)C(=O)[C@H](C)[C@@H](O)[C@]1(C)O [Clarithromycin, clarithromycin]	dose response on KCNJ5^L168R	showed a dose response

----------
Molecular target: KCNJ5^G151R (Homo sapiens, UniProt P48544, G151R)
Construct: expressed in transfected cells
Test: cell-based
Assay type: cell-based
Settings: macrolide series, dilution curves
reported-metric: inhibition of KCNJ5^MUT (structure-activity statement)

molecule	system-tested	result
CC[C@H]1OC(=O)[C@H](C)[C@@H](O[C@H]2C[C@@](C)(OC)[C@@H](O)[C@H](C)O2)[C@H](C)[C@@H](O[C@@H]2O[C@H](C)C[C@H](N(C)C)[C@H]2O)[C@](C)(OC)C[C@@H](C)C(=O)[C@H](C)[C@@H](O)[C@]1(C)O [Clarithromycin, clarithromycin]	KCNJ5^G151R (Homo sapiens, UniProt P48544, G151R)	potent effects
CC[C@H]1OC(=O)[C@H](C)C(=O)[C@H](C)[C@@H](O[C@@H]2O[C@H](C)C[C@H](N(C)C)[C@H]2O)[C@](C)(OC)C[C@@H](C)C(=O)[C@H](C)[C@H]2N(CCCCn3cnc(-c4cccnc4)c3)C(=O)O[C@]12C [telithromycin]	KCNJ5^G151R (Homo sapiens, UniProt P48544, G151R)	loss of inhibition
CC[C@H]1OC(=O)[C@H](C)[C@@H](O)[C@H](C)[C@@H](O[C@@H]2O[C@H](C)C[C@H](N(C)C)[C@H]2O)[C@](C)(O)C[C@@H](C)/C(=N\OCOCCOC)[C@H](C)[C@@H](O)[C@]1(C)O [decladinose roxithromycin]	KCNJ5^G151R (Homo sapiens, UniProt P48544, G151R)	loss of inhibition
CC[C@H]1OC(=O)[C@H](C)[C@@H](O[C@H]2C[C@@](C)(OC)[C@@H](O)[C@H](C)O2)[C@H](C)[C@@H](O[C@@H]2O[C@H](C)C[C@H](N(C)C)[C@H]2O)[C@](C)(O)C[C@@H](C)/C(=N\OCOCCOC)[C@H](C)[C@@H](O)[C@]1(C)O [Roxithromycin, roxithromycin]	KCNJ5^G151R (Homo sapiens, UniProt P48544, G151R)	potent effects

----------
Molecular target: KCNJ5^L168R (Homo sapiens, UniProt P48544, L168R)
Construct: expressed in transfected cells
Sequence (P48544 1-419 L168R): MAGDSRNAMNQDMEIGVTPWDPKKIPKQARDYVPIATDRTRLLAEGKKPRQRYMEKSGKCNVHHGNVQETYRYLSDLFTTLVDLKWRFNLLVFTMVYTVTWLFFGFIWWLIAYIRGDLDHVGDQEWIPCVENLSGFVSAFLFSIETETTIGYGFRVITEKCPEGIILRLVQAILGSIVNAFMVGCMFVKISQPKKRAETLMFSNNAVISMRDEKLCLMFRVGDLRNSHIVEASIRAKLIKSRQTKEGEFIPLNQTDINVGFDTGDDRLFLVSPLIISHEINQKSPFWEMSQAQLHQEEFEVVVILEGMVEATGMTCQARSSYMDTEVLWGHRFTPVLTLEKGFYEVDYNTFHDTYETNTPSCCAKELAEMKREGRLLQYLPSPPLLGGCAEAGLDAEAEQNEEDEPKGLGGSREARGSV
Experiment: Cell viability assay (ATP, CellTiter-Glo): rescue of KCNJ5^L168R-induced lethality in inducible HEK293 cells
Format: cell-based
Details: 10-point dilution 20 to 0.0391 μM, N=3, four-parameter fit
reported-metric: L168R IC50

compound	result
CC[C@H]1OC(=O)[C@H](C)[C@@H](O[C@H]2C[C@@](C)(OC)[C@@H](O)[C@H](C)O2)[C@H](C)[C@@H](O[C@@H]2O[C@H](C)C[C@H](N(C)C)[C@H]2O)[C@@]2(C)C[C@@H](C)[C@@]3(O[C@@]1(C)[C@H](O)[C@H]3C)O2 [Anhydroerythromycin A, anhydroerythromycin A]	No fit
CC[C@H]1OC(=O)[C@H](C)[C@@H](O[C@H]2C[C@@](C)(OC)[C@@H](O)[C@H](C)O2)[C@H](C)[C@@H](O[C@@H]2O[C@H](C)C[C@H](N(C)C)[C@H]2O)[C@](C)(O)C[C@@H](C)[C@@H]2N[C@@H](COCCOC)O[C@H]([C@H]2C)[C@]1(C)O	No fit
CC[C@H]1OC(=O)[C@H](C)[C@@H](O[C@H]2C[C@@](C)(OC)[C@@H](O)[C@H](C)O2)[C@H](C)[C@@H](O[C@@H]2O[C@H](C)C[C@H](N(C)C)[C@H]2O)[C@](C)(O)C[C@](C)(F)C(=O)[C@H](C)[C@@H](O)[C@]1(C)O	No fit
